Molecular target: UniProtKB O88867
Sequence (O88867 whole entry, looked up): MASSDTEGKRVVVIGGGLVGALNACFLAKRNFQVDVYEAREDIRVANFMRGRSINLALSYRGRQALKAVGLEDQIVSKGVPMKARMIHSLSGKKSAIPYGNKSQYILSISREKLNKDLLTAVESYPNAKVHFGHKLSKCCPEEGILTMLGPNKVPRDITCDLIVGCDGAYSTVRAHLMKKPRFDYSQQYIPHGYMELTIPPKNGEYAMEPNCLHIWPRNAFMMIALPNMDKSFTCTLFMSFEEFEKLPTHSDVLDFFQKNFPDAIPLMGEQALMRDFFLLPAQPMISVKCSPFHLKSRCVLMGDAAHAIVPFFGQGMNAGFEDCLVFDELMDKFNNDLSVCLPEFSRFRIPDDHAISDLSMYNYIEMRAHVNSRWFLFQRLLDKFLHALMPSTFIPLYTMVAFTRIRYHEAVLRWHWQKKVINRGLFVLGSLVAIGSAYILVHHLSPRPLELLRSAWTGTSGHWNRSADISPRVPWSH
Assay: Compound was evaluated for ex vivo inhibition of Kynurenine 3-hydroxylase activity in kidney of rat after injecting perorally
Format: tissue-based
Threshold 10 µmol/kg: ED50 strictly smaller gives fulfilled, otherwise not fulfilled.

[[record]]
compound = "COc1ccc(S(=O)(=O)Nc2nc(-c3cccc([N+](=O)[O-])c3)cs2)cc1"
group = "fulfilled"

[[record]]
compound = "NC(CC(=O)c1ccc(Cl)c(Cl)c1)C(=O)O (stereo not given)"
group = "not fulfilled"

[[record]]
compound = "COc1ccc(S(=O)(=O)Nc2nc(-c3cc(C(F)(F)F)ccc3F)cs2)cc1OC"
group = "fulfilled"

[[record]]
compound = "Nc1ccc(S(=O)(=O)Nc2nc(-c3cc(C(F)(F)F)ccc3F)cs2)cc1"
group = "fulfilled"

[[record]]
compound = "Cc1ccc(S(=O)(=O)Nc2nc(-c3cccc([N+](=O)[O-])c3)cs2)cc1"
group = "not fulfilled"


Taken from ChEMBL document CHEMBL1130431.
